Recorded measurements of IC50, one per entry
- target.of.assay: Dihydroorotate dehydrogenase (quinone), mitochondrial (Homo sapiens)
- Sequence (Q02127 whole entry): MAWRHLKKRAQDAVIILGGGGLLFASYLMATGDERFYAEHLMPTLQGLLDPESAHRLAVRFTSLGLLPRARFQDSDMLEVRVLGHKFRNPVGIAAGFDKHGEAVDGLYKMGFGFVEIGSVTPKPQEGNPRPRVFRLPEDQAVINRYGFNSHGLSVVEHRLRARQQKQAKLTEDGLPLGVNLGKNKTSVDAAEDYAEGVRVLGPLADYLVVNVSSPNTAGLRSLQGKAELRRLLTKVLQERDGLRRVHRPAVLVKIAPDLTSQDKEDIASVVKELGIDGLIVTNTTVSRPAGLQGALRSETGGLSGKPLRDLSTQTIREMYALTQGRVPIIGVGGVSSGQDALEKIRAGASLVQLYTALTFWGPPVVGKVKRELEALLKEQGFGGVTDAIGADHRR
- experimental.details: Inhibition of His6-tagged recombinant human dihydroorotate dehydrogenase expressed in Escherichia coli using L-dihydroorotate as substrate after 5 to 10 mins by DCIP dye-based assay

{"compound": "CCCc1ccc(Nc2cc(C)nc3ncnn23)cc1", "IC50": "> 100 µM"}
{"compound": "Cc1cc(NC2Cc3ccc(F)cc3C2)n2ncnc2n1 (stereo not drawn)", "IC50": "> 50 µM"}
{"compound": "Cc1cc(Nc2ccc3c(c2)CCCC3)n2ncnc2n1", "IC50": "> 100 µM"}
{"compound": "C#Cc1ccc(Nc2cc(C)nc3ncnn23)cc1", "IC50": "> 100 µM"}
{"compound": "Cc1cc(Nc2ccc(N(C)C)cc2)n2ncnc2n1", "IC50": "> 100 µM"}
{"compound": "Cc1cc(Nc2ccc3c(c2)CCC3)n2ncnc2n1", "IC50": "> 100 µM"}
{"compound": "Cc1cc(Nc2ccc(Cl)c(F)c2)n2ncnc2n1", "IC50": "> 50 µM"}
{"compound": "CCCCCc1ccc(Nc2cc(C)nc3ncnn23)cc1", "IC50": "> 100 µM"}
{"compound": "FC(F)(F)c1ccc(Nc2cc(Cl)nc3ncnn23)cc1", "IC50": "> 100 µM"}
{"compound": "Cc1cc(Nc2ccc(C3CC3)cc2)n2ncnc2n1", "IC50": "> 100 µM"}
{"compound": "Cc1cc(Nc2ccc(S(F)(F)(F)(F)F)cc2)n2ncnc2n1", "IC50": "> 100 µM"}
{"compound": "Cc1cc(Nc2ccc(C(C)(C)C)cc2)n2ncnc2n1", "IC50": "> 100 µM"}
{"compound": "Cc1cc(NC2Cc3ccc(Br)cc3C2)n2ncnc2n1 (stereo not drawn)", "IC50": "> 50 µM"}

----------
- Tested on: Rattus norvegicus
- experimental.details: Cmax in Sprague-Dawley rat at 20.1 mg/kg, po by LC-MS analysis
- Assay type: ADME, organism-based
- Set-up: dose 20.1 mg/kg, route oral
- settings: in vivo

{"smiles.str": "Cc1cc(Nc2ccc(S(F)(F)(F)(F)F)cc2)n2ncnc2n1", "Cmax, µM": 31}

----------
// IC50 lookup, one value per entry
- experimental.details: Inhibition of His6-tagged recombinant Plasmodium berghei dihydroorotate dehydrogenase expressed in Escherichia coli using L-dihydroorotate as substrate after 10 to 15 mins by DCIP dye-based assay
- settings: in the assay text read “5 to 10 mins” for “10 to 15 mins”

{"compound": "Cc1cc(Nc2ccc(SC(F)(F)F)cc2)n2ncnc2n1", "IC50": "1200 nM"}
{"compound": "C#Cc1ccc(Nc2cc(C)nc3ncnn23)cc1", "IC50": "4100 nM"}
{"compound": "Cc1cc(Nc2ccc(C(C)C)cc2)n2ncnc2n1", "IC50": "880 nM"}
{"compound": "C=Cc1ccc(Nc2cc(C)nc3ncnn23)cc1", "IC50": "4500 nM"}
{"compound": "COc1cc2c(cc1OC)CC(Nc1cc(C)nc3ncnn13)C2", "IC50": "41000 nM"}
{"compound": "CCc1c(C)nc2ncnn2c1Nc1ccc(C(C)C)cc1", "IC50": "4500 nM"}
{"compound": "CCCCCCCNc1cc(C)nc2ncnn12", "IC50": "55000 nM"}
{"compound": "CCCCCCc1ccc(Nc2cc(C)nc3ncnn23)cc1", "IC50": "20000 nM"}
{"compound": "Cc1cc(Nc2cc(F)c(C(F)(F)F)c(F)c2)n2ncnc2n1", "IC50": "280 nM"}
{"compound": "FC(F)(F)c1ccc(Nc2cc(Cl)nc3ncnn23)cc1", "IC50": "130 nM"}
{"compound": "CCc1c(C)nc2ncnn2c1Nc1ccc(OC(F)(F)F)cc1", "IC50": "5700 nM"}
{"compound": "Cc1cc(Nc2ccc3c(c2)OCO3)n2ncnc2n1", "IC50": "55000 nM"}
{"compound": "Cc1cc(Nc2ccc3c(c2)CCCC3)n2ncnc2n1", "IC50": "190 nM"}
{"compound": "Cc1cc(Nc2ccc(Cl)c(F)c2)n2ncnc2n1", "IC50": "1300 nM"}
{"compound": "Cc1cc(Nc2ccc(N3CCCC3)cc2)n2ncnc2n1", "IC50": "> 50000 nM"}
{"compound": "Cc1cc(Nc2ccc(C3CC3)cc2)n2ncnc2n1", "IC50": "2900 nM"}
{"compound": "CCCCc1ccc(Nc2cc(C)nc3ncnn23)cc1", "IC50": "5250 nM"}
{"compound": "CCCCCCCc1ccc(Nc2cc(C)nc3ncnn23)cc1", "IC50": "> 50000 nM"}
{"compound": "Cc1cc(Nc2ccc(CC(F)(F)F)cc2)n2ncnc2n1", "IC50": "8800 nM"}
{"compound": "Cc1cc(Nc2ccc(S(F)(F)(F)(F)F)cc2)n2ncnc2n1", "IC50": "280 nM"}
{"compound": "CCc1ccc(Nc2cc(C)nc3ncnn23)cc1", "IC50": "3900 nM"}
{"compound": "Cc1cc(NC2CCc3cc(F)ccc3C2)n2ncnc2n1 (stereo not drawn)", "IC50": "1900 nM"}
{"compound": "Cc1cc(Nc2ccc3[nH]c(C(F)(F)F)nc3c2)n2ncnc2n1", "IC50": "> 50000 nM"}
{"compound": "Cc1cc(NC2Cc3ccc(F)cc3C2)n2ncnc2n1 (stereo not drawn)", "IC50": "1400 nM"}
{"compound": "Cc1cc(Nc2ccc(C(C)(C)C)cc2)n2ncnc2n1", "IC50": "400 nM"}
{"compound": "Cc1ccc(Nc2c3c(nc4ncnn24)CCC3)cc1F", "IC50": "1300 nM"}
{"compound": "Cc1cc(NC2Cc3ccccc3C2)n2ncnc2n1", "IC50": "2400 nM"}
{"compound": "Cc1cc(Nc2ccc(C(F)(F)F)c(C(F)(F)F)c2)n2ncnc2n1", "IC50": "550 nM"}
{"compound": "CCc1cc(Nc2ccc(C(F)(F)F)cc2)n2ncnc2n1", "IC50": "2000 nM"}
{"compound": "Cc1cc(Nc2ccc3c(c2)CCC3)n2ncnc2n1", "IC50": "1000 nM"}
{"compound": "Cc1cc(NC2Cc3ccc(Br)cc3C2)n2ncnc2n1 (stereo not drawn)", "IC50": "3300 nM"}
{"compound": "Cc1cc(Nc2ccc(N(C)C)cc2)n2ncnc2n1", "IC50": "12000 nM"}
{"compound": "CCCCCc1ccc(Nc2cc(C)nc3ncnn23)cc1", "IC50": "22000 nM"}
{"compound": "Cc1cc(Nc2ccc3sccc3c2)n2ncnc2n1", "IC50": "600 nM"}
{"compound": "CCCc1ccc(Nc2cc(C)nc3ncnn23)cc1", "IC50": "9000 nM"}
{"compound": "Cc1cc(NCCc2ccccc2)n2ncnc2n1", "IC50": "27000 nM"}
{"compound": "FC(F)(F)c1ccc(Nc2cc(C(F)(F)F)nc3ncnn23)cc1", "IC50": "2300 nM"}
{"compound": "Cc1cc(NC2CCc3ccccc3C2)n2ncnc2n1 (stereo not drawn)", "IC50": "2300 nM"}

----------
- Tested on: Plasmodium falciparum
- experimental.details: Antimalarial activity against Plasmodium falciparum 3D7 infected in human A positive erythrocytes by [3H]hypoxanthine uptake assay in presence of serum in medium
- Type: functional, organism-based
pEC50: −log10 of the molar value.
Classification field: 1 = pEC50 at or over 6; -1 = pEC50 under 6.

{"molecule": "CCCCCCCNc1cc(C)nc2ncnn12", "classification": -1}
{"molecule": "Cc1cc(Nc2ccc(N(C)C)cc2)n2ncnc2n1", "classification": -1}
{"molecule": "Cc1cc(Nc2ccc(C(F)(F)F)c(C(F)(F)F)c2)n2ncnc2n1", "classification": -1}
{"molecule": "Cc1cc(Nc2ccc3c(c2)OCO3)n2ncnc2n1", "classification": -1}
{"molecule": "CCCCCCc1ccc(Nc2cc(C)nc3ncnn23)cc1", "classification": -1}
{"molecule": "Cc1ccc(Nc2c3c(nc4ncnn24)CCC3)cc1F", "classification": -1}
{"molecule": "CCCCCc1ccc(Nc2cc(C)nc3ncnn23)cc1", "classification": -1}
{"molecule": "Cc1cc(Nc2ccc(NC(C)(C)C)cc2)n2ncnc2n1", "classification": -1}
{"molecule": "Cc1cc(Nc2ccc3sccc3c2)n2ncnc2n1", "classification": 1}
{"molecule": "C#Cc1ccc(Nc2cc(C)nc3ncnn23)cc1", "classification": -1}
{"molecule": "Cc1cc(Nc2ccc(OC(C)(C)C)cc2)n2ncnc2n1", "classification": -1}
{"molecule": "Cc1cc(Nc2ccc(C(C)(C)C)c(F)c2)n2ncnc2n1", "classification": 1}
{"molecule": "C=Cc1ccc(Nc2cc(C)nc3ncnn23)cc1", "classification": 1}
{"molecule": "Cc1cc(NCc2ccc(F)cc2)n2ncnc2n1", "classification": -1}
{"molecule": "Cc1cc(Nc2ccc3c(c2)CCCC3)n2ncnc2n1", "classification": 1}
{"molecule": "Cc1cc(Nc2ccc(OCc3ccccc3)cc2)n2ncnc2n1", "classification": -1}
{"molecule": "Cc1cc(NCCCc2ccccc2)n2ncnc2n1", "classification": -1}
{"molecule": "O=C1C(O)=C([C@H]2CC[C@H](c3ccc(Cl)cc3)CC2)C(=O)c2ccccc21 [ATOVAQUONE]", "classification": 1}
{"molecule": "Cc1cc(Nc2ccc(SC(F)(F)F)cc2)n2ncnc2n1", "classification": 1}
{"molecule": "Cc1cc(Nc2ccc3[nH]c(C(F)(F)F)nc3c2)n2ncnc2n1", "classification": -1}
{"molecule": "CCCc1c(C)nc2ncnn2c1Nc1ccc(C)cc1", "classification": -1}
{"molecule": "Cc1cc(Nc2ccc(N3CCCC3)cc2)n2ncnc2n1", "classification": -1}
{"molecule": "Cc1cc(Nc2ccc(N3CCOCC3)cc2)n2ncnc2n1", "classification": -1}
